Values from the supplement of paper PMC12764529

# test-method-notes: folding stability dG unfold from chymotrypsin proteolysis; higher = more stable
Consider the following sequences and their measured folding stability dG unfold readings.
readout-name: folding stability dG unfold (kcal/mol)

1. SAMTIEEAIEKGKIGAIVKVEVELPNGGKIEIEIFIESESLEEALEKIKAFFEALNLKVKIIEVKVFPVSAG [r14_854_TrMRF]	2.87
2. SAGGSAGMELVPLPSPQLVPLTVETTPLPETGTTLVTETSPLGERTVTRVDPAGNVTTLSSTSTSTSAGGSA [r15_790_JUSTAS]	-0.192
3. SAGGSAGGSAAGFTAPVVQVRTENGKIYIDVKNSSVSLTVPENAEITPLESEVVKITPLPAPSAGGSAGGSA [r18_468_JUSTAS]	0.542
4. SAGMIDVVVRVRLDVRPETVAEELRRRFPAIRRIEPVRVERRVEREPGRRYLLVHLRIELGDVPPELLRSAG [r5_326_TrMRF]	3.71
5. SAGGDPETPTTITAPVDPATGTTTWVVNDGSSTSTIPSSLSLEELKKLGLTKAEPLPDGTLRFTILASAGGS [r8_382_JUSTAS]	0.494
6. SAGGELIEKAIEEALENGEEVEIEVVLRDENGELYRIRIRVRRERLPDGEVKTEIEIEIERFPLPEESAGGS [r16_323_TrROS_Hall]	4.66
7. SAGPKMKPIPFEFRNPDNGHKVKISVYYNPNGKRKIMITNPGDGRIYTFKINPGGIEIEKEIPLDDIKFSAG [r5_619_TrROS]	0.857
8. SPVEIVSEETDPNGGTKYKTYSNPQADVRIEVAYPSSGITITVHFPDSTSTKSFSSEADAEKEVVRLAASSA [r9_527_JUSTAS]	0.944
9. SAGGSAGGGMSFTLTSEKKVPGVNVTLTTVTGPGVTITYDPATGKATVEFPDSVTTVPLSSITTSAGGSAGG [r6_512_JUSTAS]	0.359
10. SAGGSMIPLDNIDTIEIYENPKEGKYEAKIYFPSNGKVYVFPEGLLPEIIESTPKIKEIKVIPVPESAGGSA [r2_159_TrMRF]	0.362
11. SDIKIENYERNPGNGMYMWTVKLPDDGKKIEIMYPPGGIYISVEHPGKKKMFPFKSWEDMLDQVKDLLKNSA [r9_527_TrROS]	1.79
12. SAGGKKKKREIEIQIPVPDEEMKKNGMDPSEFAEELAKELQSLLPPGFEDIDLDVEPHPNGWPRIKIESAGG [r13_271_TrROS]	-0.281
13. SITIMVDNLPPGATAEELASTLFNWIQQFGWEVTPIKITPMPDNWVTVEIEFKNNGKPIFRETIEFRPDASA [r9_953_TrROS]	3.56
14. SAGGSAGGIMIDSPEQMEEFAKDFFQNGYHEVPIHVMDPNGNWQTFPFTIEVPPPKPEPDPGKKSAGGSAGG [r6_258_TrROS]	0.411

###

Entries and their measured folding stability dG unfold follow.
# test-method-notes: folding stability dG unfold (combined trypsin and chymotrypsin); higher = more stable
readout-name: folding stability dG unfold (kcal/mol)

1. SAGGSAGGSAGMVITKDPNGNYTVDLVLPDGTPLDSGTITLEEVEKILKERGIPLKEIFGSAGGSAGGSAGG [r11_521_JUSTAS]	0.361
2. SAGGSAGGETITVKVKIKNEDGEEIEVEAEVTKNKDGSYTITIKNKETGETKVVPNATIEEVEPSAGGSAGG [r6_254_TrROS_Hall]	1.93
3. SAGGSFVVIEPTADGVRIVLEDDGALREVPVSPEVAAALAANPDLEGVVRSLLPEGHPIERIAAVPGSAGGS [r16_567_TrMRF]	-0.451
4. SAGGSAGGSSPPVTVIPLKIPVDPDTTPEEIKEELAAKVPPNSSVKVDTKPGSGTVNVTVTISSAGGSAGGS [r12_12_JUSTAS]	0.753
5. SAGGSAGGSAGGDVLLFVDESTGLADARALAEALGLKDVVIVPVPPAKPVVLNADGSPTSAGGSAGGSAGGS [r10_1083_TrMRF]	-0.0616
6. SAGGRYYFVRIEIYNPNNGRPFDIMIPFPGMPAEQVKEQVKEIADELAKQHGMDVKVKVEIQPLPPDSAGGS [r8_185_TrROS]	1.95
7. SAGGSAGGSAGMKIEKNKDGKLRIIIYNKNGKKVKEIEMSVEEAKKLAEKNNFEIVKIEPSAGGSAGGSAGG [r11_521_TrROS_Hall]	1.09
